From: patent US11999727B2

# Tested on: HAP1 MTAP-deleted cell line
# assay explanation: SDMA in-cell western assay, HAP1 MTAP-deleted
# Format: cell-based
# experimental context: Homo sapiens, HAP1, SDMA in-cell western, HAP1 MTAP-deleted; read-out: HAP1 MTAP deleted IC50
pIC50: −log10 of the molar value.
Would you kindly list pIC50 for each of these compounds?

Recall the recorded pIC50 for Cc1cc(NC(=O)C(=O)N2C[C@H](C)CC[C@H]2C2CCCC2)cnc1N (racemic) with HAP1 MTAP-deleted cell line and state it.
6.00 to 7.00

Recall the recorded pIC50 for CCc1cc(NC(=O)C(=O)N2C[C@@H](C)CC[C@@H]2c2ccc(N3C[C@H]4CCN(C)C[C@H]4C3)cc2)cnc1N (racemic) with HAP1 MTAP-deleted cell line and state it.
> 7.00

Recall the recorded pIC50 for C[C@H]1CC[C@H](c2cccc(Cl)c2)N(C(=O)C(=O)Nc2cnc(N)c(C3CC3)c2)C1 (single isomer, unassigned) with HAP1 MTAP-deleted cell line and state it.
> 7.00

Recall the recorded pIC50 for Cc1cc(NC(=O)C(=O)N2CC[C@H](C#N)C[C@@H]2c2ccccc2)cnc1N (single isomer, unassigned) with HAP1 MTAP-deleted cell line and state it.
< 6.00

Recall the recorded pIC50 for C[C@@H]1CC[C@@H](c2ccc(OC3CCOC3)cc2)N(C(=O)C(=O)Nc2cncc(C(N)=O)c2)C1 (mixture of isomers) with HAP1 MTAP-deleted cell line and state it.
> 7.00

Recall the recorded pIC50 for CCc1cc(NC(=O)C(=O)N2C[C@@H](C)CC[C@@H]2c2ccc(N3CC[C@H]4CCN(C)C[C@H]4C3)cc2)cnc1N (single isomer, unassigned) with HAP1 MTAP-deleted cell line and state it.
> 7.00
